molecular target: Tumour suppressor p53/oncoprotein Mdm2 (Homo sapiens, UniProt Q00987); assay: Inhibition of human MDM2 (1 to 125 residues) and p53 (unknown origin) interaction pre-incubated for 20 mins before peptide-2-biot addition and measured after 3 hrs by HTRF assay
Sequence (P04637 whole entry, the tested form may be a part): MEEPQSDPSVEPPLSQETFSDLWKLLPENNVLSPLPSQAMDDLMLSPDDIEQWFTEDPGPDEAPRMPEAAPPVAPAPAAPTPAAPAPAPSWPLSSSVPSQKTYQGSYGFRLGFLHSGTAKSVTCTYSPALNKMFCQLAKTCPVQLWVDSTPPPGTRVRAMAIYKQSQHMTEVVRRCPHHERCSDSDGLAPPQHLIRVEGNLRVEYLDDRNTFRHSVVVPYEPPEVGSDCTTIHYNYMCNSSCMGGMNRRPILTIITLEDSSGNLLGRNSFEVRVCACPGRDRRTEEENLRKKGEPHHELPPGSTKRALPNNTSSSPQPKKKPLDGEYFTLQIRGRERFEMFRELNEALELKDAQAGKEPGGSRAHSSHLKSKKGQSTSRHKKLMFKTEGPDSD
Sequence (Q00987 whole entry, the tested form may be a part): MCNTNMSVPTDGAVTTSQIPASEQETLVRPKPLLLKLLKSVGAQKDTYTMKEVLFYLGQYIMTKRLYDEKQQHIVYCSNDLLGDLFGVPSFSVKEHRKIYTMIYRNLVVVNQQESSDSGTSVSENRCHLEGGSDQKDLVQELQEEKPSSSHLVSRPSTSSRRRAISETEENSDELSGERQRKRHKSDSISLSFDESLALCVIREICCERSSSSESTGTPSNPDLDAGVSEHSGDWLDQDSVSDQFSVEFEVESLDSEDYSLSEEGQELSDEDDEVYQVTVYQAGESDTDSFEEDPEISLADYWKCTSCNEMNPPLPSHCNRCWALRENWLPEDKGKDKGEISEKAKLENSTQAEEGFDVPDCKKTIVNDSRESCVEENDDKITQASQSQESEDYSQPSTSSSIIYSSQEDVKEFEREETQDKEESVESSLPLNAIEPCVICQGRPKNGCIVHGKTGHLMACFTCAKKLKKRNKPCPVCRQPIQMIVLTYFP
Binary label based on IC50 with cut-off 700 nM: below gives Yes, not below gives No.

Use these answered entries as a reference point.
COMPOUND | SYSTEM | DISCRETE_LABEL
CC(C)(C)C[C@@H]1C=C(C(=O)O)[C@H](c2cccc(Cl)c2F)[C@]12C(=O)Nc1cc(Cl)ccc12 (racemic) | Tumour suppressor p53/oncoprotein Mdm2 (Homo sapiens, UniProt Q00987) | Yes
CC(C)(C)C[C@@H]1C=C(C(=O)Nc2ccc(C(=O)O)cc2)[C@H](c2cccc(Cl)c2F)[C@]12C(=O)Nc1cc(Cl)ccc12 (racemic) | Tumour suppressor p53/oncoprotein Mdm2 (Homo sapiens, UniProt Q00987) | Yes
CC(C)(C)CC1C=C(C(=O)Nc2ccc(C(=O)O)cc2)C(c2cccc(Cl)c2F)C12C(=O)Nc1cc(Cl)ccc12 (single isomer, unassigned; (+)) | Tumour suppressor p53/oncoprotein Mdm2 (Homo sapiens, UniProt Q00987) | Yes
CC(C)(C)CC1C=C(C(=O)Nc2ccc(C(=O)O)cc2)C(c2cccc(Cl)c2F)C12C(=O)Nc1cc(Cl)ccc12 (single isomer, unassigned; (-)) | Tumour suppressor p53/oncoprotein Mdm2 (Homo sapiens, UniProt Q00987) | No
CC(C)(C)C[C@@H]1C=C(C(=O)N[C@H]2C[C@@](C)(O)C2)[C@H](c2cccc(Cl)c2F)[C@]12C(=O)Nc1cc(Cl)ccc12 (racemic) | Tumour suppressor p53/oncoprotein Mdm2 (Homo sapiens, UniProt Q00987) | No

Quick check: IC50 of CC(C)(C)CC1C=C(C(=O)O)C(c2cccc(Cl)c2F)C12C(=O)Nc1cc(Cl)ccc12 (single isomer, unassigned; (+)) under 700 nM?
Yes

And the next one, CC(C)(C)C[C@@H]1C=C(C(=O)N[C@H]2CC[C@H](O)CC2)[C@H](c2cccc(Cl)c2F)[C@]12C(=O)Nc1cc(Cl)ccc12 (racemic) ?
Yes

And the next one, CC(C)(C)C[C@H]1C=C(C(=O)NCCN2CCOCC2)[C@@H](c2cccc(Cl)c2F)[C@]12C(=O)Nc1cc(Cl)ccc12 (racemic) ?
No

And the next one, CC(C)(C)CC1C=C(C(=O)NC2CCC(O)CC2)C(c2cccc(Cl)c2F)C12C(=O)Nc1cc(Cl)ccc12 (single isomer, unassigned; (-)) ?
No

---

biological target: Tumour suppressor p53/oncoprotein Mdm2 (Homo sapiens); assay: Inhibition of human MDM2 (1 to 125 residues) and p53 (unknown origin) interaction pre-incubated for 20 mins before peptide-2-biot addition and measured after 3 hrs by HTRF assay
pIC50: −log10 of the molar value.
I would appreciate it if you labelled entries True when pIC50 is 6 or higher, otherwise False.

Use these answered entries as a reference point.
MOLECULE | SYSTEM | DISCRETE_LABEL
CC(C)(C)C[C@@H]1C=C(C(=O)NCCN2CCOCC2)[C@@H](c2cccc(Cl)c2F)[C@]12C(=O)Nc1cc(Cl)ccc12 (racemic) | Tumour suppressor p53/oncoprotein Mdm2 (Homo sapiens) | False
CC(C)(C)CC1C=C(C(=O)NC2CCC(O)CC2)C(c2cccc(Cl)c2F)C12C(=O)Nc1cc(Cl)ccc12 (single isomer, unassigned; (+)) | Tumour suppressor p53/oncoprotein Mdm2 (Homo sapiens) | True

Entry CC(C)(C)CC1C=C(C(=O)O)C(c2cccc(Cl)c2F)C12C(=O)Nc1cc(Cl)ccc12 (stereo in doubt; (-)-8') : is its pIC50 no less than 6?
True

And the next one, CC(C)(C)CC1C=C(C(=O)NC2CC(C)(O)C2)C(c2cccc(Cl)c2F)C12C(=O)Nc1cc(Cl)ccc12 (single isomer, unassigned; (-)) ?
False
